# protocol details: NCI Yeast Anticancer Drug Screen. Data for the sgs1 mgt1 strain (AID 161);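 further: 0% = growth of cultures given vehicle only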
# settings: S. cerevisiae sgs1 mgt1 strain, at 5.0 µM (retest, dose inferred, filed as 0.5), hits give high values
This is part of a sample that, as a whole, favours compounds with a hit. Of some 79,000 tested, about 15% had one in any assay.
Recorded growth inhibition by entry

[
  {
    "sample smiles": "CSc1nncc(=O)[nH]1.[Hg]",
    "growth inhibition, %": 100
  },
  {
    "sample smiles": "C=C[C@H]1CN2CC[C@H]1C[C@@H]2[C@@H](O)c1ccnc2ccccc12",
    "growth inhibition, %": -10
  },
  {
    "sample smiles": "Oc1ccc(Cl)cc1Cc1ccccc1",
    "growth inhibition, %": -5
  }
]

---

# protocol details: NCI Yeast Anticancer Drug Screen. Data for the rad50 strain (AID 155);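 further: 0% = growth of vehicle-only cultures of the same strain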
# settings: S. cerevisiae rad50 strain growth inhibition; at 50.0 µM; hits give high values
About 79,000 compounds went through this panel and 15% of them were active in at least one assay; those are over-represented in the sample as a whole. Active and inactive are the calls of the source. No stated cut-off is given here; in the data, active means growth inhibition above about 70%; inactive means the rest.
Recorded growth inhibition by entry
readout: growth inhibition

[
  {
    "molecule": "CCN(CCCl)c1cc(CN(C)C)cc(NC(=O)c2ccc(C(=O)Nc3cccc(N(CCCl)NN)c3)cc2)c1",
    "measured": "89.4% (active)"
  },
  {
    "molecule": "CCOP(=O)(OCC)Oc1ccc([N+](=O)[O-])cc1",
    "measured": "0.55% (inactive)"
  },
  {
    "molecule": "O=[N+]([O-])/C=C/c1cc2c(cc1Br)OCO2",
    "measured": "98.5% (active)"
  },
  {
    "molecule": "CC(O[Si](c1ccccc1)(c1ccccc1)C(C)(C)C)[C@H](NC(=O)OC(C)(C)C)C(=O)O (stereo partly specified)",
    "measured": "86% (active)"
  },
  {
    "molecule": "Cc1nc2c(Br)cc(Br)cc2c(=O)n1-c1ccccc1N",
    "measured": "63% (inactive)"
  },
  {
    "molecule": "CO/C(N)=C(\\C#N)N=Cc1cccnc1",
    "measured": "29.6% (inactive)"
  },
  {
    "molecule": "OC(c1ccc(Cl)cc1)C(Cl)(Cl)Cl (stereo unspecified)",
    "measured": "97.6% (active)"
  },
  {
    "molecule": "CC1([CH2][Hg][I])CS(=O)(=O)CC(C)([CH2][Hg][I])O1 (stereo unspecified)",
    "measured": "95.7% (active)"
  },
  {
    "molecule": "CN(C)CCN(C)P12(Oc3ccccc3O1)Oc1c(Cl)c(Cl)c(Cl)c(Cl)c1O2",
    "measured": "99% (active)"
  },
  {
    "molecule": "O=C(N/N=C/c1cc(Cl)cc(Cl)c1[O-])c1ccccc1O.O=C(N/N=C/c1cc(Cl)cc(Cl)c1[O-])c1ccccc1O.[Zn+2]",
    "measured": "94.5% (active)"
  },
  {
    "molecule": "S=C(S)N1CCOCC1",
    "measured": "-11.9% (inactive)"
  }
]

---

# protocol details: NCI Yeast Anticancer Drug Screen. Data for the wt1 strain (AID 149);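 further: 0% = growth of vehicle-treated wt1 cultures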
# settings: S. cerevisiae wt1 strain (SPY 50644) growth inhibition; at 1.2 µM; hits give high values
Compounds without any hit were thinned out: in the full panel of roughly 79,000, 15% have a hit. The source made the active and inactive calls. Cut-off read from the data, not from the text of the source: active = growth inhibition above about 70%; inactive = the rest.
Recorded growth inhibition by entry
readout: growth inhibition

[
  {
    "sample smiles": "O=C(COc1ccc(Cl)cc1Cl)NO",
    "readout": "growth inhibition",
    "measured": "-6% (inactive)"
  },
  {
    "sample smiles": "Cc1c2ccccc2cc2ccccc12",
    "readout": "growth inhibition",
    "measured": "-2% (inactive)"
  },
  {
    "sample smiles": "Oc1cccc2cccnc12",
    "readout": "growth inhibition",
    "measured": "27% (inactive)"
  },
  {
    "sample smiles": "Nc1nc(N)c(-c2ccc(Cl)c(Cl)c2)c(CP(Cl)(Cl)(Cl)Br)n1",
    "readout": "growth inhibition",
    "measured": "9% (inactive)"
  }
]

---

Recorded growth inhibition by entry
# protocol details: NCI Yeast Anticancer Drug Screen. Data for the rad50 strain (AID 155);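 further: 0% = growth of vehicle-only cultures of the same strain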
# settings: S. cerevisiae rad50 strain growth inhibition; at 5.0 µM (retest, dose inferred, filed as 0.5); hits give high values
The panel holds about 79,000 compounds, 15% with a hit somewhere; the sample as a whole holds those more often.
readout: growth inhibition (%)

[
  {
    "molecule": "CCC1CCCCN1CC(C(C)=O)C(c1ccccc1)c1c(O)c2ccccc2oc1=O (stereo not given)",
    "measured": 13
  },
  {
    "molecule": "COc1ccc(C(Cc2ccc(Cl)c(Cl)c2)NCCO)cc1 (stereo not given)",
    "measured": -16
  },
  {
    "molecule": "COc1ccc(/C=C/[N+](=O)[O-])c(OC)c1OC",
    "measured": 43
  },
  {
    "molecule": "CNC(Cc1ccccc1)c1ccc(OC)c(OC)c1 (stereo not given)",
    "measured": 69
  },
  {
    "molecule": "CN1CSC(=S)N(C)C1",
    "measured": 21
  }
]

---

# protocol details: NCI Yeast Anticancer Drug Screen. Data for the cln2 rad14 strain (AID 165);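 further: 0% = growth equal to vehicle treated cultures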
# settings: S. cerevisiae cln2 rad14 strain, at 50.0 µM (retest, dose inferred, filed as 5.0), hits give high values
This is part of a sample that, as a whole, favours compounds with a hit. Of some 79,000 tested, about 15% had one in any assay.

[
  {
    "molecule": "Cc1ccc2nc3sc(=O)sc3nc2c1",
    "unit label": "%",
    "growth inhibition": 89
  },
  {
    "molecule": "C=C1C(C)C2C(Cc3ccccc3)NC(=O)C23C(OC(C)=O)C=CC(C)(O)C(=O)C(C)C/C=C/C3C1O (stereo not given)",
    "unit label": "%",
    "growth inhibition": 96
  },
  {
    "molecule": "CSc1ccccc1[As](C)C",
    "unit label": "%",
    "growth inhibition": 98
  },
  {
    "molecule": "CCC1(CC)C(=O)[N-]C(=O)[N-]C1=O.[Au+].[Au+].c1ccc([PH+](c2ccccc2)c2ccccc2)cc1.c1ccc([PH+](c2ccccc2)c2ccccc2)cc1",
    "unit label": "%",
    "growth inhibition": 96
  },
  {
    "molecule": "CC[CH2][Sn]([F])([F])[CH2]CC",
    "unit label": "%",
    "growth inhibition": 91
  },
  {
    "molecule": "FC(F)(F)c1cccc(CCl)c1",
    "unit label": "%",
    "growth inhibition": -6
  },
  {
    "molecule": "O=[N+]([O-])c1ccc(SC2CCCCCCC2Cl)c([N+](=O)[O-])c1 (stereo not given)",
    "unit label": "%",
    "growth inhibition": 29
  },
  {
    "molecule": "O=[N+]([O-])O.[NH-]C1CCCCC1[NH-].[NH-]C1CCCCC1[NH-].[NH-]C1CCCCC1[NH-].[OH-].[OH-].[OH-].[Pt+4].[Pt+4].[Pt+4] (stereo not given)",
    "unit label": "%",
    "growth inhibition": 21
  },
  {
    "molecule": "CCC[CH2][Sn]1([CH2]CCC)[O]CC(CN(C)Cc2ccccc2)[O]1 (stereo not given)",
    "unit label": "%",
    "growth inhibition": -2
  },
  {
    "molecule": "OC1CCCC2CCC[N-]C12.OC1CCCC2CCC[N-]C12.[O]=[V][OH] (stereo not given)",
    "unit label": "%",
    "growth inhibition": 97
  },
  {
    "molecule": "O=C(c1ccccc1)c1c(CC(O)c2ccccn2)n(C(=O)c2ccccc2)c2ccccc12 (stereo not given)",
    "unit label": "%",
    "growth inhibition": 88
  },
  {
    "molecule": "c1ccc2c[n+](CCCCCCCCCC[n+]3ccc4ccccc4c3)ccc2c1",
    "unit label": "%",
    "growth inhibition": 98
  },
  {
    "molecule": "Cn1cc(/C=C/[N+](=O)[O-])c2ccccc21",
    "unit label": "%",
    "growth inhibition": 98
  },
  {
    "molecule": "NC(=O)CNCc1ccc([As]=O)cc1 (stereo not given)",
    "unit label": "%",
    "growth inhibition": 3
  },
  {
    "molecule": "C[n+]1ccccc1-c1nc(-c2cccc[n+]2C)nc(-c2cccc[n+]2C)n1",
    "unit label": "%",
    "growth inhibition": 51
  },
  {
    "molecule": "[Cl][Hg][Cl]",
    "unit label": "%",
    "growth inhibition": 99
  },
  {
    "molecule": "Cc1cccc2cc3ccccc3cc12",
    "unit label": "%",
    "growth inhibition": 99
  },
  {
    "molecule": "CCOC(=S)S",
    "unit label": "%",
    "growth inhibition": 66
  },
  {
    "molecule": "N#CC(C#N)=Cc1cc(Cl)ccc1O",
    "unit label": "%",
    "growth inhibition": 30
  },
  {
    "molecule": "CCN(CCCl)c1cc(CN(C)C)cc(NC(=O)c2ccc(C(=O)Nc3cccc(N(CCCl)NN)c3)cc2)c1",
    "unit label": "%",
    "growth inhibition": 95
  },
  {
    "molecule": "NN1CCCC1C(=O)O (stereo not given)",
    "unit label": "%",
    "growth inhibition": -2
  },
  {
    "molecule": "C[C@H]1CCC/C=C/[C@@H]2C[C@H](O)C[C@H]2[C@H](O)/C=C/C(=O)O1",
    "unit label": "%",
    "growth inhibition": 99
  },
  {
    "molecule": "c1ccc2c(c1)[As]=c1ccccc1=[As]2 (stereo not given)",
    "unit label": "%",
    "growth inhibition": 99
  },
  {
    "molecule": "O=C1C(Br)=CC2(C=C1Br)CCNc1c(O)c3c4c(c12)=NCCC=4C=N3",
    "unit label": "%",
    "growth inhibition": 50
  },
  {
    "molecule": "CC(Cc1ccccc1)[N+](=O)[O-] (stereo not given)",
    "unit label": "%",
    "growth inhibition": -3
  },
  {
    "molecule": "CCC[CH2][Sn]([CH2]CCC)([CH2]CCC)[O]C(=O)C[N+](C)(C)c1cc[c]([Hg][c]2ccc(N(C)C)cc2)cc1",
    "unit label": "%",
    "growth inhibition": 99
  },
  {
    "molecule": "[O]=[Sb]([OH])([OH])[c]1ccccc1",
    "unit label": "%",
    "growth inhibition": 98
  },
  {
    "molecule": "COc1c(NC(=O)CC(C)=O)[c]([Hg][O]C(C)=O)c(OC)c(Cl)[c]1[Hg][O]C(C)=O",
    "unit label": "%",
    "growth inhibition": 96
  },
  {
    "molecule": "CC(=O)C1CCC2C3CCC4CC([N+]5(C)CCCCC5)CCC4(C)C3CCC12C (stereo not given)",
    "unit label": "%",
    "growth inhibition": 31
  },
  {
    "molecule": "CC(C)(Br)C(=O)C(Br)Br",
    "unit label": "%",
    "growth inhibition": 99
  }
]
